Recorded measurements of TGI, one per entry
- Tested on: SNB-19 CNS
- protocolDetails: NCI tumour cell line growth inhibition, 48 h

// worked examples, TGI included
compound | TGI
CCCCCC(/C=C/[C@@H]1[C@@H](C(O)CCCCCC(=O)OC)C(=O)C[C@H]1O[Si](C)(C)C(C)(C)C)OCOCCOC (some centres undefined) | 29 µM
Cc1cc(C)c(S(=O)(=O)N(CCCN)OCCCN)c(C)c1 | > 100 µM
CCC1=C(c2ccc(OC)cc2)CC[C@]2(CCNC2=O)[C@@H]1C | > 100 µM
CC(C)c1cc(C(C)C)c(Cl)c(Cl)c1O (tested in a mixture with another compound) | 42.8 µM
Cc1cc(C)nc(NC(=S)Nc2ccc(Cl)cc2)c1 | > 100 µM

Prompt: Tell me TGI reported for Cc1cc(NS(=O)(=O)c2ccc(NC(=O)c3ccc4nc5ccccc5c(Nc5ccc(S(=O)(=O)Nc6cc(C)on6)cc5)c4c3)cc2)no1
Response: > 50 µM

Prompt: Tell me TGI reported for O=c1[nH]c(=O)n(C2CC(O)C(O)C(CO)O2)cc1F (centres undefined)
Response: > 100 µM

Prompt: Tell me TGI reported for O=C(NN1C(=O)C(Cl)C1c1c(O)ccc2ccccc12)c1ccccc1O (centres undefined)
Response: > 100 µM

Prompt: Tell me TGI reported for COc1cc(S(=O)(=O)Nc2ccc(-c3csc(/N=C\c4cccs4)n3)cc2)ccc1Cl
Response: > 100 µM
